# Tested on: BxPC-3 cell line
# methodDescription: ATCC's MTT Cell Proliferation Assay, BxPC-3
# Assay type: cell-based, human
# recordedConditions: BxPC-3, 72 hours post-treatment
# Description: To test the activities of tris(8-quinolinolato)gallium(III), ATCC's MTT Cell Proliferation Assay® was performed using human pancreatic cancer cell lines PANC-1, BxPC-3, and Capan-1. Stock cultures were allowed to grow to 70-80% confluence for this study. The anti-proliferative activity of tris(8-quinolinolato)gallium(III), against the indicated cell lines was evaluated in vitro using the ATCC's MTT Cell Proliferation Assay (Catalog No. 30-1010K). […]
quantity: IC50 (nM)

1. [Ga+3].[O-]c1cccc2cccnc12.[O-]c1cccc2cccnc12.[O-]c1cccc2cccnc12 [tris(8-quinolinolato)gallium(III)]
3.2

All values here come from patent US20130316998A1.
